# Target or test system: T1, human complement protein C5 (human, UniProt P01031 19-1676)
# T1 construct: Native C5 is a two-chain protein made from one precursor; also called hC5; human C5
# Method notes: SPR (Biacore), pH 6.0
Observed property: koff

Lookup: Quick check: koff of CRL0484 (bispecific antibody, anti-C5 VHH / (G4S)3 / anti-albumin VHH fusion, purified by Protein A; also called CRL0484 (C5/HSA)) EVQLVESGGGLVQPGGSLRLSCAASGRTFSGILSPYAVGWFRQAPGKGLEFVSTITSGGSAIYTDSVKGRFTISRDNAKDSLYLQMNSLRAEDTAVYYCAVRTRRYGSNLGEVPQENEYGYWGQGTLVTVSSGGGGSGGGGSGGGGSEVQLVESGGGLVKPGGSLRLSCAASGRPVSNYAAAWFRQAPGKEREFVSAINWQKTATYADSVKGRFTISRDNAKNSLYLQMNSLRAEDTAVYYCAAVFRVVAPKTQYDYDYWGQGTLVTVSS ?
Found: 0.000236 s⁻¹
